Cited source for all entries: ChEMBL document CHEMBL4627400

- ASSAYED_SYSTEM: Ionotropic glutamate receptor NMDA 1/2D (Rattus norvegicus) (UniProt P35439+Q62645)
- METHOD_SUMMARY: Positive allosteric modulation of recombinant rat GluN1a/GluN2D receptor expressed in Xenopus laevis oocytes assessed as increase in glycine/L-glutamate-induced channel current at 30 uM by two-electrode voltage clamp method relative to control
- Format: cell-based
Each entry below carries its reported %max.

Answered cases to consult:
COc1cc2c(cc1OC)C(COC1CCOCC1)N(C(=O)c1cccc(C(F)(F)F)c1)CC2 (stereo not given)    95%
COc1ccc(OCC2c3ccc(OC)cc3CC(=O)N2Cc2c[nH]nn2)cc1 (stereo not given)    98%
COc1ccc(OCC2c3ccc(OC)cc3CC(=O)N2CCc2c[nH]c3ccccc23)cc1 (stereo not given)    85%
COc1ccc(OCC2c3cnn(C)c3CCN2C(=O)c2cccc(Cl)c2)cc1 (stereo not given)    220%

--- query ---
Field request: %max | item: COc1ccc(OCC2c3ccc(OC)cc3CC(=O)N2CCCN(C)C)cc1 (stereo not given)
96%
